- ASSAY NAME: brain exposure after oral administration
- Format: in vivo, male CD-1 mice
- EXPERIMENTAL CONDITIONS: male, CD-1, mouse, brain, po, 50 mg/kg, Male CD-1 mice, single PO dose 50 mg/kg (Group 4), 5 hr, Group B; read-out: KX2-391 Brain Concentrations, Group B
MEASURED ATTRIBUTE: concentration at 5 hr (ng/g)
Numbers only, in ng/g.

// concentration at 5 hr value for O=C(Cc1ccc(-c2ccc(OCCN3CCOCC3)cc2)cn1)NCc1ccccc1 : 260

* * *

- ASSAY NAME: plasma pharmacokinetics after IV administration
- Type: in vivo, Male CD-1 mice
- EXPERIMENTAL CONDITIONS: male, CD-1, mouse; plasma, single IV dose 5 mg/kg
MEASURED ATTRIBUTE: AUC(0-inf) (ng·h/mL)
Numbers only, in ng·h/mL.

// AUC(0-inf) value for CN1CCN(CCOc2ccc(-c3ccc(CC(=O)NCc4cccc(F)c4)cc3)c(F)c2)CC1 [Compound 139] : 1420
